Record form. Attribute: Capan-1 (pancreas, adenocarcinoma) cell viability (% of control). Fill in for each entry.
test system: Capan-1 (pancreas, adenocarcinoma) cells; assay: Cell viability assay, CellTiter-Glo (Example 21); assay type: cell-based, human; settings: 300 nM, 72 h treatment

Prompt: Supply Capan-1 (pancreas, adenocarcinoma) cell viability (% of control) value. Item: [N-]=[N+]=Nc1cccc(CN2CCC3=C(C2)C(=O)N(Cc2ccc(Cl)cc2)C2=NCCN23)c1 [I/133]
Response: 34.0 ± 2.8 % of control

Prompt: Supply Capan-1 (pancreas, adenocarcinoma) cell viability (% of control) value. Item: O=C1C2=C(CCN(Cc3cc(F)cc(F)c3)C2)N2CCN=C2N1Cc1ccc(F)cc1 [I/7]
Response: 35.5 ± 3.3 % of control

Prompt: Supply Capan-1 (pancreas, adenocarcinoma) cell viability (% of control) value. Item: [N-]=[N+]=Nc1ccc(CN2C(=O)C3=C(CCN(Cc4cc(F)cc(F)c4)C3)N3CCN=C23)cc1 [I/107]
Response: 34.7 ± 2.9 % of control

Prompt: Supply Capan-1 (pancreas, adenocarcinoma) cell viability (% of control) value. Item: O=C1C2=C(CCN(Cc3cc(F)cc(F)c3)C2)N2CCN=C2N1Cc1ccc(C(F)(F)F)cc1 [I/30]
Response: 33.1 ± 1.7 % of control
